FYI, the data here is from PubChem BioAssay (NCI).

# System: LOX IMVI melanoma
# MEASUREMENT PROTOCOL: NCI tumour cell line growth inhibition, 48 h
Quick rule for you: TGI at 30 µM or higher means met, lower means not met.

Here are 5 compounds together with their reported answers.
>>> class("CSc1ccc(Cc2cc(C(C)(C)C)cc(C(C)(C)C)c2O)cc1")
"not met"
>>> class("COc1ccc(-c2oc3ncnc(N)c3c2-c2ccc(NC(=O)Nc3cc(C(F)(F)F)ccc3F)cc2)cc1")
"not met"
>>> class("CC(C)(Oc1ccc2c(=O)cc(-c3ccc(Cl)cc3)oc2c1)C(=O)Nc1c(Cl)cccc1Cl")
"met"
>>> class("CCOC(=O)NC(=O)c1cn(C2CCCCC2)c(=O)n(C)c1=O")
"met"
>>> class("CN1C(c2ccccc2)CC(=NO)CC1c1ccccc1 (stereo unspecified)")
"met"

Next compound, please.
Task item: Given the entry `CCOc1ccc(Nc2ccnc3cc(Cl)ccc23)cc1` , answer whether its TGI meets or surpasses 30 µM.
Reply: met

---

# System: OVCAR-4 ovarian
# MEASUREMENT PROTOCOL: NCI tumour cell line growth inhibition, 48 h; in the data active means GI50 below about 0.43 µM; inactive means the rest
Return exactly one item of TRUE = active, FALSE = inactive

Task item: Which result was noted for this compound in the test: `O=C1/C(=C/c2ccc(Cl)cc2)N=C(c2ccccc2)N1c1cc(C(F)(F)F)ccc1Cl`
Reply: FALSE

Task item: Which result was noted for this compound in the test: `N[C@@H](Cc1c[nH]c2ccccc12)C(=O)NC1CCN(Cc2c[nH]c3ccc(Cl)cc23)CC1`
Reply: FALSE

Task item: Which result was noted for this compound in the test: `C=C[C@@H]1CCC/C=C/[C@@H]2C[C@H](O)C[C@H]2[C@H](O)/C=C/C(=O)O1`
Reply: TRUE

Task item: Which result was noted for this compound in the test: `Oc1c(CN2CCCCC2)ccc2cccnc12`
Reply: FALSE

Task item: Which result was noted for this compound in the test: `C/C(COc1ccc2oc(-c3ccccc3)cc(=O)c2c1)=N\O`
Reply: FALSE

Task item: Which result was noted for this compound in the test: `CCCCNC(=O)Oc1ccc(/C(=C(\C)c2ccc(OC)cc2)c2ccc(OCCN3CCCCC3)cc2)cc1`
Reply: FALSE

Task item: Which result was noted for this compound in the test: `C#Cc1cccc(Nc2nc(C)nc3cc(NC(=O)CCl)ccc23)c1`
Reply: FALSE

Task item: Which result was noted for this compound in the test: `N#Cc1c(N)c(C(=O)c2ccc3c(c2)OCCO3)n2c1CCCC2`
Reply: FALSE

---

# System: SK-MEL-5 melanoma
# MEASUREMENT PROTOCOL: NCI tumour cell line growth inhibition, 48 h
Quick rule for you: TGI at 30 µM or higher means 1, lower means -1.

>>> class("C=C[C@@H]1CCC/C=C/[C@@H]2C[C@H](O)C[C@H]2[C@H](O)/C=C/C(=O)O1")
-1

Task item: Given the entry `N=C1c2ccccc2C(=O)c2c(NCCNCCO)ccc(O)c21` , answer whether its TGI meets or surpasses 30 µM.
Reply: -1

Task item: Given the entry `O=C(O)c1nn(-c2ccc(Cl)cc2)c2c1C(=O)c1ccccc1C2=O` , answer whether its TGI meets or surpasses 30 µM.
Reply: 1

Task item: Given the entry `Cc1ccc(F)c2[nH]c(-c3ccccc3)cc(=O)c12` , answer whether its TGI meets or surpasses 30 µM.
Reply: -1

Task item: Given the entry CC1CN=C(N(C(=O)Nc2ccc(Cl)cc2)c2cccc(Cl)c2)S1 (stereo unspecified) , answer whether its TGI meets or surpasses 30 µM.
Reply: 1

Task item: Given the entry `NC1=Nc2ccccc2Sc2nccn21` , answer whether its TGI meets or surpasses 30 µM.
Reply: 1

Task item: Given the entry N#CC12CC(C=O)=C(N)C1(C#N)CC(C=O)=C2N (stereo unspecified) , answer whether its TGI meets or surpasses 30 µM.
Reply: 1

Task item: Given the entry `COc1ccc(/C=C/c2cc(OC)c(OC)c(OC)c2)cc1OC` , answer whether its TGI meets or surpasses 30 µM.
Reply: 1
